Data origin: PubChem BioAssay AID504577

- protocol_notes: yeast vacuolar ATPase proton transport modulators – pHLuorin cytosolic pH fluorescence, primary screen (AID 504577)
- test_conditions: S. cerevisiae, at 10 µM
Hit rate of the full screen: of about 350,000 compounds, about 1,300 (0.37%) were called active. Cut-off read from the data, not from the text of the source: active = response mostly above about 7.3% (no sharp cut-off); inactive = mostly below about 5.4%. The entries come from a sample that favours actives as a whole.
Allowed answers: yes (1) (active), no (0) (inactive)

Study these solved cases before continuing.
> print(dat)
                                   compound  discrete.label
1  CC(C)c1ccc(OCC(O)CN2CCN(c3ccccn3)CC2)cc1 (stereo unspecified)          no (0)
2  COC(=O)c1cc(S(=O)(=O)N2CCN(c3cc(C)ccc3C)CC2)c[nH]1          no (0)
3       CCCc1cc(=O)[nH]c(SCc2ccc(C#N)cc2)n1         yes (1)

In this assay, the call recorded for OC(COc1cccc2ccccc12)CN1CCN(c2ccccn2)CC1 (stereo unspecified) was what?
yes (1)

In this assay, the call recorded for CN(C)CCN=c1cc(-c2ccccc2)oc2ccc(Cl)cc12 was what?
no (0)

In this assay, the call recorded for Cc1cc(OC(=O)c2ccc(OC(C)C)cc2)c([N+](=O)[O-])c(=O)[nH]1 was what?
no (0)

In this assay, the call recorded for CCN(CC)C(=O)C1=C(C)N(Cc2ccc(OC)cc2)C(=O)C(CC(=O)NCCCCc2ccccc2)C1 (stereo unspecified) was what?
no (0)

In this assay, the call recorded for CCCc1cc(=O)[nH]c(SCc2cc(=O)oc3c(C)c(C)ccc23)n1 was what?
no (0)

In this assay, the call recorded for Cn1c(N)c(C(=O)COC(=O)C23CC4CC(CC(C4)C2)C3)c(=O)n(C)c1=O was what?
no (0)

In this assay, the call recorded for Cc1ccc(-n2nc(C)c(/C=N/NC(=O)c3cccs3)c2Cl)cc1 was what?
no (0)

In this assay, the call recorded for Nc1nc(O)c(CC(=O)O)s1 was what?
no (0)

====

- protocol_notes: yeast vacuolar ATPase proton transport modulators – pHLuorin cytosolic pH fluorescence, primary screen (AID 504577)
- test_conditions: S. cerevisiae, at 10 µM, hits give high values
In all, about 350,000 compounds went through this assay and about 1,300 (0.37%) were called active. Only a selection was taken, and actives are over-represented in it overall.
This listing pairs molecules with measured response.
Express your answer in %, writing the number without its unit.

Please review the following examples before continuing.
> print(dat)
                                   molecule  recorded.endpoint  value.observed
1  COCCNc1cc(NCCOC)c([N+](=O)[O-])cc1[N+](=O)[O-]           response            2.79
2  COc1ccccc1CNC(=O)COc1ccc(C)nc1[N+](=O)[O-]           response           -0.89
3  CCCCNc1ccc(C(=O)Nc2cccc(C)n2)cc1[N+](=O)[O-]           response            17.9
4    O=[N+]([O-])c1ccc(C=Nc2ccc(Cl)cc2Cl)s1           response            17.4

Need response, item O=C(O)c1ccc(-n2cccc2)cc1O
-0.56

Need response, item COc1ccccc1CNC(=O)COC(=O)c1cccs1
-4.49

Need response, item Cc1cc(CO)nn1-c1ccc([N+](=O)[O-])cc1
15.4

Need response, item N#CC(C(N)=O)=C1CCC2(CC1)OCCCCO2
18.9

Need response, item Cc1cc(O)c(NC(=O)c2ccc(C)c([N+](=O)[O-])c2)cc1C
1.52

====

- protocol_notes: yeast vacuolar ATPase proton transport modulators – pHLuorin cytosolic pH fluorescence, primary screen (AID 504577)
- test_conditions: S. cerevisiae, at 10 µM, hits give high values
About 1,300 (0.37%) of roughly 350,000 compounds were called active. What follows is part of a selection rich in actives, with near analogues and random picks from the rest.
This listing pairs compounds with measured response.
Express your answer in %, writing the number without its unit.

> print(dat)
                                   compound  unit.tag  value.observed
1  Cc1ccc(S(=O)(=O)N(C)c2ccc(OCC(=O)NC3=NCCS3)cc2)cc1         %           -1.26
2             Cc1cc(=O)[nH]c(SCC(N)=O)c1C#N         %            23.4
3        Cc1ccc(C2=NN(C)c3nc4ccccc4n3C2)cc1         %            0.17
4  N/C(=N\OC(=O)c1ccc([N+](=O)[O-])cc1)c1ccccn1         %           -2.74
5  O=C(NC1CCN(Cc2ccccc2)CC1)c1cc(Br)c(Br)[nH]1         %            10.4
6  O=C(Nc1ccc(S(=O)(=O)Nc2nccs2)cc1)c1cc(-c2ccncc2)nc2ccccc12         %            2.45

Need response, item O=C(N/N=C/c1ccccc1O)C1CCCC1
-2.85

Need response, item CC(C)=CCCC1(C)C=Cc2c(ccc3c2[nH]c2cc(O)c(C)cc23)O1 (stereo not given)
-1.63

Need response, item CC(=O)N1CCC(N(C(=O)Nc2ccc(Cl)cc2)C(C)C)CC1
12.3

Need response, item CC(=O)N1CCN(CCN=CC2=C(O)CC(C)(C)CC2=O)CC1
0.38

Need response, item COC(=O)c1ccccc1NC(=O)CSc1nc2c(c(=O)[nH]1)CCC2
13.5

Need response, item CCNC(=S)N1CCN(CCN=CC2=C(O)CC(C)(C)CC2=O)CC1
20.1

Need response, item CC1(C)CC(=O)C(C=NCCN2CCN(C(=S)Nc3cccc(Cl)c3)CC2)=C(O)C1
-5.71

Need response, item Cc1ccccc1CS(=O)(=O)CC1(O)CCN(C(=O)c2cccc(C(F)(F)F)c2)CC1
-0.64

Need response, item Cc1cc(C#N)c(SCC(N)=O)nc1-c1ccc(F)cc1
1.45

Need response, item O=C(CSc1nnc2ccc(-c3ccncc3)nn12)N1CCCCC1
2.79

====

- protocol_notes: yeast vacuolar ATPase proton transport modulators – pHLuorin cytosolic pH fluorescence, primary screen (AID 504577)
- test_conditions: S. cerevisiae, at 10 µM, hits give high values
About 1,300 (0.37%) of roughly 350,000 compounds were called active. This excerpt belongs to a sample that is enriched for actives.
This listing pairs compounds with measured response.

Please review the following examples before continuing.
> print(dat)
                                   compound    value.observed
1  CC1=NN(c2ccc(Cl)c(C(=O)O)c2)C(=O)/C1=C/c1ccc(-c2ccccc2[N+](=O)[O-])o1     240% (active)
2  COc1ccc2c(CN3CCN(S(=O)(=O)c4cccs4)CC3)cc(=O)oc2c1  1.14% (inactive)

Need response, item COc1ccc(C2/C=C\CN(S(=O)(=O)c3cccs3)CC(=O)N2Cc2ccc(F)cc2)cc1 (stereo unspecified)
15% (active)

Need response, item COc1ccc(C2/C=C\CN(CC(C)C)CC(=O)N2Cc2ccc(F)cc2)cc1 (stereo unspecified)
-1.81% (inactive)

Need response, item C=CCNC(=S)NNC(=O)COc1c(Cl)cc(Cl)cc1Cl
-1.44% (inactive)

Need response, item S=c1nccc(-c2cc(Cl)sc2Cl)[nH]1
-0.72% (inactive)

====

- protocol_notes: yeast vacuolar ATPase proton transport modulators – pHLuorin cytosolic pH fluorescence, primary screen (AID 504577)
- test_conditions: S. cerevisiae, at 10 µM, hits give high values
Hit rate of the full screen: of about 350,000 compounds, about 1,300 (0.37%) were called active. The entries come from a sample that favours actives as a whole.
recorded_endpoint: response (%)
Express your answer in %, writing the number without its unit.

Please review the following examples before continuing.
> print(dat)
                                   compound  recorded.endpoint  value.observed
1  CCC(C)NC(=O)c1ccc(NC(=O)CC2SC(N3CCCCC3)=NC2=O)cc1 (configuration not stated)           response             1.4
2  COc1cc(/C=C2/C(=O)ON=C2C)ccc1OCc1ccccc1F           response            2.69
3  COc1ccc(C(CNC(=O)c2ccc(OCc3cscn3)cc2)N2CCCC2)cc1 (configuration not stated)           response            2.42
4          CCc1ccc(Oc2coc3cc(O)ccc3c2=O)cc1           response           -1.86
5  COc1ccc(Oc2coc3cc(OC(=O)c4cncc(Br)c4)ccc3c2=O)cc1           response            2.46
6          Cc1ccc(NC(=O)NC(=O)c2ccccc2)cc1F           response           -0.67

Need response, item CN(C)S(=O)(=O)c1cc(C(=O)Nc2ccn(C)n2)c(Cl)cc1Cl
-0.21

Need response, item COCCN(Cc1ccccc1)C(=O)Cc1ccc(S(=O)(=O)N2CCOCC2)s1
0.76
